tested on: yeast and mold; assay: Mold and yeast counts in treated contaminated metalworking fluid samples; assay type: cell-based; settings: Day 8
Mold and Yeast Counts values by entry
// return a plain number; no unit text

(Q) Hi! What's the reported Mold and Yeast Counts for OCCN1CN(CCO)CN(CCO)C1 [Sample 3] on yeast and mold?
(A) 10

(Q) Hi! What's the reported Mold and Yeast Counts for CCCCNC(=O)OCC#CI [Sample 7, 3-iodo-2-propynyl butyl carbamate] on yeast and mold?
(A) 100

(Q) Hi! What's the reported Mold and Yeast Counts for OCCN1CN(CCO)CN(CCO)C1 [Sample 4] on yeast and mold?
(A) 100

###

tested on: bacteria; assay: Bacterial counts in treated contaminated metalworking fluid samples; format: cell-based; settings: Day 12
Test Readout: Bacterial Counts

Molecule: CCCCNC(=O)OCC#CI [Sample 7, 3-iodo-2-propynyl butyl carbamate]
Bacterial Counts: 10^4 bacteria/mL
//
Molecule: CCCCNC(=O)OCC#CI [Sample 8, 3-iodo-2-propynyl butyl carbamate]
Bacterial Counts: 10^5 bacteria/mL
//
Molecule: OCCN1CN(CCO)CN(CCO)C1 [Sample 3]
Bacterial Counts: 10^6 bacteria/mL

Proceed to the following item.
(Q) Entry under review: OCCN1CN(CCO)CN(CCO)C1 [Sample 4] . Reported Bacterial Counts?
(A) >10^7 bacteria/mL

###

system: yeast and mold; assay: Mold and yeast counts in treated contaminated metalworking fluid samples; type: cell-based; conditions: Day 6
Test Readout: Mold and Yeast Counts
// return a plain number; no unit text

Answered examples (3):
Compound: CCCCNC(=O)OCC#CI [Sample 8, 3-iodo-2-propynyl butyl carbamate]
Measured Value: 100
--
Compound: OCCN1CN(CCO)CN(CCO)C1 [Sample 3]
Measured Value: 10
--
Compound: CCCCNC(=O)OCC#CI [Sample 7, 3-iodo-2-propynyl butyl carbamate]
Measured Value: 0

Proceed to the following item.
(Q) Entry under review: OCCN1CN(CCO)CN(CCO)C1 [Sample 4] . Reported Mold and Yeast Counts?
(A) 0

###

Mold and Yeast Counts values by entry
test system: yeast and mold; test: Mold and yeast counts in treated contaminated metalworking fluid samples; format: cell-based; conditions: Day 1
// return a plain number; no unit text

Answered examples (3):
Compound: CCCCNC(=O)OCC#CI [Sample 8, 3-iodo-2-propynyl butyl carbamate]
Target Of Assay: yeast and mold
Measured Value: 0
--
Compound: OCCN1CN(CCO)CN(CCO)C1 [Sample 3]
Target Of Assay: yeast and mold
Measured Value: 0
--
Compound: OCCN1CN(CCO)CN(CCO)C1 [Sample 4]
Target Of Assay: yeast and mold
Measured Value: 0

Proceed to the following item.
(Q) Entry under review: CCCCNC(=O)OCC#CI [Sample 7, 3-iodo-2-propynyl butyl carbamate] . Reported Mold and Yeast Counts?
(A) 0

###

Mold and Yeast Counts values by entry
system: yeast and mold; experiment: Mold and yeast counts in treated contaminated metalworking fluid samples; format: cell-based; conditions: Day 3
// return a plain number; no unit text

Answered examples (3):
Molecule: CCCCNC(=O)OCC#CI [Sample 8, 3-iodo-2-propynyl butyl carbamate]
Mold and Yeast Counts: 0
//
Molecule: CCCCNC(=O)OCC#CI [Sample 7, 3-iodo-2-propynyl butyl carbamate]
Mold and Yeast Counts: 0
//
Molecule: OCCN1CN(CCO)CN(CCO)C1 [Sample 3]
Mold and Yeast Counts: 0

(Q) Entry under review: OCCN1CN(CCO)CN(CCO)C1 [Sample 4] . Reported Mold and Yeast Counts?
(A) 0

Each recorded value in this set is attributed to patent US8535661B2.
